Each recorded value in this set is attributed to paper PMC4840014.

Biological target: nucleolin (NCL) (human (human recombinant protein), UniProt P19338 1-710)
Sequence (P19338 whole entry): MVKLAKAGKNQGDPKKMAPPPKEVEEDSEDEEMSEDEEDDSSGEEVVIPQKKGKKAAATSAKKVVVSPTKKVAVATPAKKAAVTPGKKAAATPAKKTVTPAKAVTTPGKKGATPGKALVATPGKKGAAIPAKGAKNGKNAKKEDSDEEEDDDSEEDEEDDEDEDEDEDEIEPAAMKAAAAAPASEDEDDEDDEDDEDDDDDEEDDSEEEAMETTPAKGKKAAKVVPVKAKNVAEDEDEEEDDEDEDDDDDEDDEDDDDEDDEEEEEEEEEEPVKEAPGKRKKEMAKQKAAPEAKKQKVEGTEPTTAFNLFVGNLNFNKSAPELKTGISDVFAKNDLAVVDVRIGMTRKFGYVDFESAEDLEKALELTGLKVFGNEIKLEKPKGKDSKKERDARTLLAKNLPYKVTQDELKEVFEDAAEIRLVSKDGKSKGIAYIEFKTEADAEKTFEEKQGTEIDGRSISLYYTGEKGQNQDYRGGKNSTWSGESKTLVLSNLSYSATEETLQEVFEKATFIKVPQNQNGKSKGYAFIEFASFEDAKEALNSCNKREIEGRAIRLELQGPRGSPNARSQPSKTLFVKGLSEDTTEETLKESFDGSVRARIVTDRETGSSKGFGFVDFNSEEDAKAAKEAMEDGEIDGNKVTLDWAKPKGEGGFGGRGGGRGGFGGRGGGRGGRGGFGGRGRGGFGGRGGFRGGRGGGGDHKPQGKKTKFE
Assay: SPR; HEPES-KCl; SPR (Biacore T100, CM5 chip), HEPES-KCl buffer (composition, pH and temperature not given), oligos 15.6-1000 nM, heated 95 C 5 min and cooled to room temperature, 20 uL/min, 120 s contact and dissociation, 1 M KCl regeneration
Conditions: G4
METRIC: pKd
Scale note: pKd = -log10(concentration in M).

Record request: pKd value, item GGGAGGCGTGGCCTGGGCGGGACTGGGG (structured_DNA) [LTR-III]
7.12
